Recorded activation values for a group of compounds are listed next.
tested on: Cellular tumor antigen p53 (Homo sapiens) (UniProt P04637)
Sequence (P04637 whole entry, looked up): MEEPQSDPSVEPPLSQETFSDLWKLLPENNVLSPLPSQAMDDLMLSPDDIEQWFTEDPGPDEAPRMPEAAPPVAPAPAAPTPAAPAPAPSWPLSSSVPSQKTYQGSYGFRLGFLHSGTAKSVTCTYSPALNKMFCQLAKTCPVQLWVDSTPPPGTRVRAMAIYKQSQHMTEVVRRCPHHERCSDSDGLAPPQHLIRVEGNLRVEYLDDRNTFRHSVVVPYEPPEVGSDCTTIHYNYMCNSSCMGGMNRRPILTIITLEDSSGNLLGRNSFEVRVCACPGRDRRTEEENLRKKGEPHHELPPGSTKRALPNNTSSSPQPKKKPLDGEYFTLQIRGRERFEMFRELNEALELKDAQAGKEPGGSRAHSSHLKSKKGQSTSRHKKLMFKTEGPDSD
method: Primary qHTS for small molecule compounds that upregulate eGFP-tagged delta133p53alpha (in N-terminal) cells. (AID 2060322);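 further: cells pre-induced with doxycycline then dosed without doxycycline; series mostly up to about 56 µM; 0% = DMSO vehicle and 100% = reference activator; nearly all actives have a fitted effect of over 75% in size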
experimental context: NCI-H358 eGFP-delta133p53alpha fluorescence, 24 h; hits give high values
Results filed as inconclusive are left out.
Only the number, expressed in %, is required.

Examples from the recorded data:
compound | value unit | activation
CN[C@@H]1[C@H](O)[C@H](NC)[C@H]2O[C@@]3(O)C(=O)C[C@@H](C)O[C@H]3O[C@@H]2[C@H]1O | % | 27.7
CSc1nc(N)c2ncn([C@@H]3O[C@H](COP(=O)(O)OP(=O)(O)OP(=O)(O)O)[C@@H](O)[C@H]3O)c2n1 | % | 7.61
CC(=O)O[C@H]1C[C@@H]2CC[C@@H]3[C@H](CC[C@@]4(C)[C@H]3C[C@H]([N+]3(C)CCCCC3)[C@@H]4OC(C)=O)[C@@]2(C)C[C@@H]1N1CCCCC1 | % | 9.6
C[C@@H]1C[C@H]2OC(=O)[C@@]3(C)CCC[C@](C)(C23)[C@@]1(O)CCC1=CC(=O)OC1O (stereo partly drawn) | % | 9.16

compound "N/C(=N\N=C\c1ccc(Cl)cc1)N/N=C/c1ccc(Cl)cc1" , activation observed: 0

// field: activation; key: COC(=O)[C@@]1(C)CC[C@]2(C(=O)O[C@@H]3O[C@H](CO)[C@@H](O)[C@H](O)[C@H]3O)CC[C@]3(C)C(=CCC4[C@@]5(C)CC[C@H](O[C@@H]6O[C@H](C(=O)O)[C@@H](O)[C@H](O)[C@H]6O)C(C)(C)C5CC[C@]43C)[C@@H]2C1 (stereo partly drawn) ; value = -16.8

For this compound ( "CC(C)C[C@H](CO)Nc1nc(S[C@@H](C)c2ccccc2)nc2nc(N)sc12" ), measured activation is 5.67

So, "O=C(c1cccc(Cl)c1F)N1CCN(Cc2cccc(Nc3nccs3)n2)CC1" ? Its activation was 23.9

Where these numbers come from: PubChem BioAssay (NCATS)
